# system: UniProtKB Q15910
# Sequence (Q15910 whole entry): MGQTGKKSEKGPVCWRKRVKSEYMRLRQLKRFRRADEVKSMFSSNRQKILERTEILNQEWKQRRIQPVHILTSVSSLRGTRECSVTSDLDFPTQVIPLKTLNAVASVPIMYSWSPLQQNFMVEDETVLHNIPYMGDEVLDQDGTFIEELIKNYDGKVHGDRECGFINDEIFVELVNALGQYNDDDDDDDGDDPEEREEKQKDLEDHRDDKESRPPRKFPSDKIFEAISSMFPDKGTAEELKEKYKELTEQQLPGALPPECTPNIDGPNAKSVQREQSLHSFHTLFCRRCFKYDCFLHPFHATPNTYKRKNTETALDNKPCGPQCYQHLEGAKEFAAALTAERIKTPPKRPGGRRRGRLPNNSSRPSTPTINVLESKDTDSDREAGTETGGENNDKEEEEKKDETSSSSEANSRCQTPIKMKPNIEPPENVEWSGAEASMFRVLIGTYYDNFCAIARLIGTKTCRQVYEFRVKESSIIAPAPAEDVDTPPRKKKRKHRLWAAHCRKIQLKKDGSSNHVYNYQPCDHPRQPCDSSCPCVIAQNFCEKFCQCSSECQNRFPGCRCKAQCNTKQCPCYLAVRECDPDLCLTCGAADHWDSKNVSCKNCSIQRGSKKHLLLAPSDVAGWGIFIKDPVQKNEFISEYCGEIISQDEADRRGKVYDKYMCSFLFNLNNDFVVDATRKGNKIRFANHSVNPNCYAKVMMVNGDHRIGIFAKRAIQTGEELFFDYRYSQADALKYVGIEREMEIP
# Sequence (Q15022 whole entry partner): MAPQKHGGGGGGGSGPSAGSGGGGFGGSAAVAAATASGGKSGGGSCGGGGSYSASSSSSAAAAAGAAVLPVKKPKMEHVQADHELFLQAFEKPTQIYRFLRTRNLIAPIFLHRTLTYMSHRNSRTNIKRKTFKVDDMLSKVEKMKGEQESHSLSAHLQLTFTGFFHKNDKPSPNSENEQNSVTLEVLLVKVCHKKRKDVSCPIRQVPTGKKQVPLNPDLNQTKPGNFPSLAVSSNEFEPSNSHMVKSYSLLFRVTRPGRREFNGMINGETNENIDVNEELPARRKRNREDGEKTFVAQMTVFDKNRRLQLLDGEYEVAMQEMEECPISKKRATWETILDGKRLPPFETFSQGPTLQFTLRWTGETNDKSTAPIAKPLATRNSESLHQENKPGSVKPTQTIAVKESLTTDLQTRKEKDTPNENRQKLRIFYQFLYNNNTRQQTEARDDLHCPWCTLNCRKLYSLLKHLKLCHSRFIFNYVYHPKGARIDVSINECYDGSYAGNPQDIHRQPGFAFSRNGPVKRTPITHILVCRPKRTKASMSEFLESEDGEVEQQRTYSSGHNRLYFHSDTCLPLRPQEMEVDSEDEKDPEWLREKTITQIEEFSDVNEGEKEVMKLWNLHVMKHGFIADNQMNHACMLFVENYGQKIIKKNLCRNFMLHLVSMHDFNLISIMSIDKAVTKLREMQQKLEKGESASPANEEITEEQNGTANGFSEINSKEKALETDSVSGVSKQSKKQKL
# Sequence (O75530 whole entry partner): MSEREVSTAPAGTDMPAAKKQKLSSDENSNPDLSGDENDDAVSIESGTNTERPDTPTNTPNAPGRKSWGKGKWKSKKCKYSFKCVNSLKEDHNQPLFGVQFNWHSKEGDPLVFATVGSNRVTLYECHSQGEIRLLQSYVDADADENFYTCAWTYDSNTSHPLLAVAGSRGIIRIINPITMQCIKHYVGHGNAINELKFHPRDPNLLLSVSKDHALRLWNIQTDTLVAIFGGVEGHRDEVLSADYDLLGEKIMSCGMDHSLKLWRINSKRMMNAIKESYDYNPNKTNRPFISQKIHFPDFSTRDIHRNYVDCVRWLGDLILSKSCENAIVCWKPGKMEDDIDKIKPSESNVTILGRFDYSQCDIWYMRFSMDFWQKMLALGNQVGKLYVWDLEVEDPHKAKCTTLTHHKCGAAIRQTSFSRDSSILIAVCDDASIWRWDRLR
# measurementDescription: Western blot of EZH2 protein in PC3 cells
# conditionLabel: FIG. 26, 6 days treatment
propertyName: EZH2 protein (western blot)

molecule | recordedMeasurement
CCN(c1cc(-c2ccc(CN3CCN(CCCCCCCCCCCC(=O)N[C@H](C(=O)N4C[C@@H](O)C[C@H]4C(=O)NCc4ccc(-c5scnc5C)cc4)C(C)(C)C)CC3)cc2)cc(C(=O)NCc2c(C)cc(C)[nH]c2=O)c1C)C1CCOCC1 [Compound 6300] | no changes
CCN(c1cc(-c2ccc(CN3CCN(C(=O)CCCCCCCCCC(=O)N[C@H](C(=O)N4C[C@@H](O)C[C@H]4C(=O)NCc4ccc(-c5scnc5C)cc4)C(C)(C)C)CC3)cc2)cc(C(=O)NCc2c(C)cc(C)[nH]c2=O)c1C)C1CCOCC1 [Compound 6286] | no changes
